The measurements presented in this section are drawn from PubChem BioAssay.

assay: CREB reporter modulators under forskolin, primary screen, cell-based, PC12, CRE-LacZ reporter, forskolin-stimulated (AID 1146); conditions: luminescence, 4.5 h, higher = more signal, called active from +8 up or from −8 down;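 note: PC12 cells with 6xCRE LacZ reporter stimulated by forskolin 10 µM; beta-galactosidase reporter signal reflecting CREB driven transcription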
property-label: z-score
Form: value (number only, do not type unit).

Below: 2 compounds and their reported z-score.
chem-smiles | z-score
CCOC(=O)C[C@H]1[C@H](OC(=O)c2ccc(C(=O)c3ccccc3)cc2)[C@@H](NC(=O)c2ccc3ccccc3c2)c2cc(OCCCO)ccc2N1C(=O)Cc1ccc(OC)cc1 | -0.383
COCCOC(=O)N1C(=O)[C@@]2(c3cc(C#CCC(C(=O)OC)C(=O)OC)ccc31)[C@H](C(=O)N1CCN(c3ncccn3)CC1)[C@H]1C(=O)O[C@H](c3ccccc3)[C@H](c3ccccc3)N1[C@@H]2c1ccccc1OCCO | -0.374

API: the following record is the query input.
-- ask Look up and state reported z-score for COc1cc2c(cc1OC)CN(C(=O)[C@H]1[C@@H]3C(=O)O[C@@H](c4ccccc4)[C@@H](c4ccccc4)N3[C@@H](c3ccc(O)cc3)[C@]13C(=O)Nc1ccccc13)CC2
-- reply 0.282
